Target: NAT1 (arylamine N-acetyltransferase 1) (Homo sapiens, UniProt P18440)
Sequence (P18440 whole entry): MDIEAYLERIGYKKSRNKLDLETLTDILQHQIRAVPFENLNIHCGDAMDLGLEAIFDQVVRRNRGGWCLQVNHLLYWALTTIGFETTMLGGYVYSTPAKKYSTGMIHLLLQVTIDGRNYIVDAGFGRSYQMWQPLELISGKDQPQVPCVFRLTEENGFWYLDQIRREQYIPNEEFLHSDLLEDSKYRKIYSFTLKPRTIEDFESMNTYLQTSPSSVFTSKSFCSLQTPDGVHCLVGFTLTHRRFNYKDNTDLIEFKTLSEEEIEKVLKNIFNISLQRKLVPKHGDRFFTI
Assay: Increase in NAT1 enzyme activity in 40% confluent human HeLa cells at 0.5 uM using p-aminobenzoic acid substrate after 24 hrs by HPLC method relative to untreated control
Type: ADME, cell-based
Settings: probe p-aminobenzoic acid, read-out: FC
Measured Attribute: fold induction at 24 h, 0.5 µM
// print number alone

Problem: API: value(readout= fold induction at 24 h, 0.5 µM, system= NAT1 (arylamine N-acetyltransferase 1) (Homo sapiens, UniProt P18440), query= CC(/C=C/C(=O)NO)=C\[C@@H](C)C(=O)c1ccc(N(C)C)cc1 [TRICHOSTATIN] )
Result: 4.1

---

Target: NAT1 (arylamine N-acetyltransferase 1) (Homo sapiens)
Experiment: Increase in NAT1 enzyme activity in 100% confluent human HeLa cells at 0.5 uM using p-aminobenzoic acid substrate after 24 hrs by HPLC method relative to untreated control
Assay type: ADME, cell-based
Settings: probe p-aminobenzoic acid, read-out: FC
Measured Attribute: fold induction at 24 h, 0.5 µM

Problem: Write down the reported fold induction at 24 h, 0.5 µM of CC(/C=C/C(=O)NO)=C\[C@@H](C)C(=O)c1ccc(N(C)C)cc1 , test system: NAT1 (arylamine N-acetyltransferase 1) (Homo sapiens).
Result: < 1.5

---

Tested on: NATb promoter of NAT1
Test: Induction of Sp1 (GC>TA) mutant recruitment to NATb promoter in human HeLa cells at 0.5 uM after 24 hrs by luciferase reporter gene assay
Type: cell-based
Settings: read-out: FC
Measured Attribute: fold induction at 24 h, 0.5 µM

Problem: Query: fold induction at 24 h, 0.5 µM; subject: CC(/C=C/C(=O)NO)=C\[C@@H](C)C(=O)c1ccc(N(C)C)cc1 [TRICHOSTATIN]
Result: < 5

---

Target: NAT1 (arylamine N-acetyltransferase 1) (Homo sapiens, UniProt P18440)
Experiment: Increase in NAT1 enzyme activity in human HeLa cells at 0.5 uM using p-aminobenzoic acid substrate after 24 hrs by HPLC method relative to untreated control
Format: ADME, cell-based
Settings: probe p-aminobenzoic acid, read-out: FC
Measured Attribute: fold induction at 24 h, 0.5 µM
Answer with a bare number; do not write a unit.

Problem: NAT1 (arylamine N-acetyltransferase 1) (Homo sapiens, UniProt P18440) / fold induction at 24 h, 0.5 µM / CC(/C=C/C(=O)NO)=C\[C@@H](C)C(=O)c1ccc(N(C)C)cc1 [TRICHOSTATIN] : value?
Result: 3.2

---

Test system: NAT1 mRNA
Experiment: Increase in NAT1 mRNA expression in human HeLa cells at 0.5 uM after 24 hrs by qPCR method
Type: ADME, cell-based
Conditions: read-out: FC
Measured Attribute: fold induction at 24 h, 0.5 µM
Reply with just the number.

Problem: # get_value(readout='fold induction at 24 h, 0.5 µM', item= CC(/C=C/C(=O)NO)=C\[C@@H](C)C(=O)c1ccc(N(C)C)cc1 [TRICHOSTATIN] )
Result: 25

---

Test system: NATb promoter of NAT1
Experiment: Induction of Sp1 recruitment to NATb promoter in human HeLa cells at 0.5 uM after 24 hrs by luciferase reporter gene assay
Format: cell-based
Details: read-out: FC
Measured Attribute: fold induction at 24 h, 0.5 µM
Field format: numeric only.

Problem: Please give the measured fold induction at 24 h, 0.5 µM for this molecule: CC(/C=C/C(=O)NO)=C\[C@@H](C)C(=O)c1ccc(N(C)C)cc1 [TRICHOSTATIN]
Result: 45
